experiment: Hepatocyte stability; assay type: in vitro ADME; conditions: dog (Beagle) hepatocytes, male; read-out: Dog (Beagle) ^+ (T1/2 min)
Assay metric: half-life at 1 μM (min)
Expressed in min, but write only the number.

[2H]C([2H])([2H])N(C(=O)Oc1c(N2CCN(C[C@H](O)CNC)C2=O)cc(C(F)(F)F)cc1C(F)(F)F)c1ccc(F)cc1 [RTx-315]    19.6

Next up:
Ask | Report half-life at 1 μM, nothing else, for this compound: [2H]C([2H])([2H])N(C(=O)Oc1c(N2CCN(C[C@H](O)CN(C)C)C2=O)cc(C(F)(F)F)cc1C(F)(F)F)c1ccc(F)cc1 [RTx-303]
Reply | 9.9
